- Test system: HCC1937
- METHOD SUMMARY: relative cell viability, compound + erastin, vs DMSO (fraction of DMSO control); higher = less growth inhibition
- APPLIED CONDITIONS: 72 h
Where a name gives a salt, the structure may show the parent alone.
Catalogue of compounds with associated relative cell viability
No unit in the answer, only the number.

Worked set:
{"columns": ["COMPOUND", "relative cell viability"],
 "data": [
  ["CCc1ccc(CCOc2ccc(CC3SC(=O)NC3=O)cc2)nc1 (centres undefined) [Pioglitazone] + CCOc1ccccc1-n1c(C(C)N2CCN(C(=O)COc3ccc(Cl)cc3)CC2)nc2ccccc2c1=O [erastin]", 0.803],
  ["COc1ccc(CN2CCC(c3ccc4nc(C(=O)N5CCN(Cc6ccc(C(F)(F)F)cc6)CC5)[nH]c4c3)CC2)cn1 + CCOc1ccccc1-n1c(C(C)N2CCN(C(=O)COc3ccc(Cl)cc3)CC2)nc2ccccc2c1=O [erastin]", 0.569],
  ["O=C1c2cc(CO)cc(O)c2C(=O)c2c(O[C@@H]3O[C@H](CO)[C@@H](O)[C@H](O)[C@H]3O)cccc21 [Aloe-emodin-8-O-beta-D-glucopyranoside] + CCOc1ccccc1-n1c(C(C)N2CCN(C(=O)COc3ccc(Cl)cc3)CC2)nc2ccccc2c1=O [erastin]", 0.493],
  ["C=C[C@H]1CN2CC[C@H]1C[C@@H]2[C@@H](O)c1ccnc2ccc(OC)cc12 [Quinidine sulfate] + CCOc1ccccc1-n1c(C(C)N2CCN(C(=O)COc3ccc(Cl)cc3)CC2)nc2ccccc2c1=O [erastin]", 0.7]
]}

Q: Form field - read-out: relative cell viability; system: HCC1937; submitted item: COc1cc(F)c(C(C)C)cc1-c1ccc(C(F)(F)F)cc1CN1C(=O)O[C@H](c2cc(C(F)(F)F)cc(C(F)(F)F)c2)[C@@H]1C [Anacetrapib] + CCOc1ccccc1-n1c(C(C)N2CCN(C(=O)COc3ccc(Cl)cc3)CC2)nc2ccccc2c1=O [erastin]
Ans: 0.557

Q: Form field - read-out: relative cell viability; system: HCC1937; submitted item: OC[C@H]1O[C@@H](Oc2cc(O)cc(/C=C/c3ccc(O)cc3)c2)[C@H](O)[C@@H](O)[C@@H]1O [Polydatin] + CCOc1ccccc1-n1c(C(C)N2CCN(C(=O)COc3ccc(Cl)cc3)CC2)nc2ccccc2c1=O [erastin];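 note: viability read by CCK-8 kit in 96-well plates, part of a combination screen pairing lipid-metabolism-targeting compounds with erastin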
Ans: 0.78
